fold change (FC) reference
# Tested on: PC-12
# test: Neuroprotective activity in differentiated rat PC12 cells assessed as inhibition of H2O2-induced NF-kappaB nucleus accumulation treated 3 hrs before H2O2 challenge measured after 24 hrs by Western blot relative to untreated control
# Assay type: functional
Number only, no unit.

smiles: CSc1nnc(-c2ccc(Cl)cc2)c(-c2ccc(Cl)cc2)n1
measured_on: PC-12
fold change (FC): 4.04
//
smiles: CCCSc1nnc(-c2ccc(Cl)cc2)c(-c2ccc(Cl)cc2)n1
measured_on: PC-12
fold change (FC): 1.89
//
smiles: CCCCSc1nnc(-c2ccc(Cl)cc2)c(-c2ccc(Cl)cc2)n1
measured_on: PC-12
fold change (FC): 1.78
//
smiles: CCSc1nnc(-c2ccc(Cl)cc2)c(-c2ccc(Cl)cc2)n1
measured_on: PC-12
fold change (FC): 2
//
smiles: CCSc1nnc(-c2ccccc2)c(-c2ccccc2)n1
measured_on: PC-12
fold change (FC): 1.56

Kindly review the next compound as well.
Per the record, `CSc1nnc(-c2ccccc2)c(-c2ccccc2)n1` has fold change (FC) of 1.79

====

fold change (FC) reference
# System: PC-12
# test: Neuroprotective activity in differentiated rat PC12 cells assessed as decrease of H2O2-induced cleaved caspase 3 level treated 3 hrs before H2O2 challenge measured after 24 hrs by Western blot relative to untreated control
# Type: functional

Example entries begin here.
smiles: CCCSc1nnc(-c2ccc(Cl)cc2)c(-c2ccc(Cl)cc2)n1
measured_on: PC-12
fold change (FC): 1.92
//
smiles: CCSc1nnc(-c2ccc(Cl)cc2)c(-c2ccc(Cl)cc2)n1
measured_on: PC-12
fold change (FC): 2
//
smiles: CCCCSc1nnc(-c2ccc(Cl)cc2)c(-c2ccc(Cl)cc2)n1
measured_on: PC-12
fold change (FC): 1.83
//
smiles: CSc1nnc(-c2ccccc2)c(-c2ccccc2)n1
measured_on: PC-12
fold change (FC): 1.91
//
smiles: CSc1nnc(-c2ccc(Cl)cc2)c(-c2ccc(Cl)cc2)n1
measured_on: PC-12
fold change (FC): 4.59

Kindly review the next molecule as well.
Per the record, `CCSc1nnc(-c2ccccc2)c(-c2ccccc2)n1` has fold change (FC) of 1.64

====

# System: PC-12
# test: Neuroprotective activity in rat undifferentiated PC12 cells assessed as protection against H2O2-induced cell death at 10 uM treated 3 hrs before H2O2 challenge measured after 24 hrs by MTT assay relative to control
# Type: functional
Label yes when Activity < 60%; otherwise no.

Use the examples below as a reference point.
smiles: CCSc1nnc(-c2ccc(Cl)cc2)c(-c2ccc(Cl)cc2)n1
class_assignment: yes

smiles: CCCCSc1nnc(-c2ccc(Cl)cc2)c(-c2ccc(Cl)cc2)n1
class_assignment: no

smiles: CSc1nnc(-c2ccc(Cl)cc2)c(-c2ccc(Cl)cc2)n1
class_assignment: no

Now for another entry.
Query block: Threshold test, Activity < 60%: `CSc1nnc(-c2ccccc2)c(-c2ccccc2)n1`
Result block: yes
